# Measured On: UniProt P06276
# Sequence (P06276 whole entry): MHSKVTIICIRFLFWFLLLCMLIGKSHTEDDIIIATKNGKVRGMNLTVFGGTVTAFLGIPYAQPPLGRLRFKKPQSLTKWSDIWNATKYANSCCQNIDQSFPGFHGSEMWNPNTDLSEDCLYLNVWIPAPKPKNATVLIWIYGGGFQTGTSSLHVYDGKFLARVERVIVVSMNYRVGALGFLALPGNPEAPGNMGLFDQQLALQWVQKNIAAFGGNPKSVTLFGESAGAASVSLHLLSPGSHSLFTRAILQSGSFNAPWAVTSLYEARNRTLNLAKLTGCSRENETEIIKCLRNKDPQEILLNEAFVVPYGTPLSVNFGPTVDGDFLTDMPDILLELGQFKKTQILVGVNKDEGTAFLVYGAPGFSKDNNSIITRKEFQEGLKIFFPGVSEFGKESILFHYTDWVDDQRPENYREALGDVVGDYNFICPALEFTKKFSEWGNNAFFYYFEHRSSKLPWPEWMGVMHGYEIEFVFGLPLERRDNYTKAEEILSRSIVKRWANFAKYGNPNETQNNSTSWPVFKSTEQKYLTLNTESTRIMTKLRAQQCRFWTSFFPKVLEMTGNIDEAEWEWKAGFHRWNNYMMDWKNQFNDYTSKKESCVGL
# Assay: Inhibition of recombinant BuChE (unknown origin) using BTCI as substrate at 20 uM preincubated for 30 mins followed by substrate addition by TECAN multiplate reader analysis relative to control
Quantity Kind: inhibition

1. C#CCCOc1c(CN2CCN(c3ccccc3)CC2)cc(-c2cc(=O)c3ccccc3o2)cc1OC
1.63%
2. C#CCCCOc1c(CN2CCN(Cc3ccccc3)CC2)cc(-c2cc(=O)c3ccccc3o2)cc1OC
7.42%
3. C#CCCCOc1c(CN2CCOCC2)cc(-c2cc(=O)c3ccccc3o2)cc1OCC
6.37%
4. C#CCOc1c(CN2CCOCC2)cc(-c2cc(=O)c3ccccc3o2)cc1CN1CCOCC1
9.03%
5. C#CCCOc1c(CN2CCOCC2)cc(-c2cc(=O)c3ccccc3o2)cc1OCC
4.42%
6. C#CCCCOc1c(CN2CCCCC2)cc(-c2cc(=O)c3ccccc3o2)cc1OCC
3.36%
7. C#CCCCOc1c(CN2CCCCC2)cc(-c2cc(=O)c3ccccc3o2)cc1OC
21.6%
8. C#CCCCOc1c(CN2CCCCC2)cc(-c2cc(=O)c3ccccc3o2)cc1CN1CCCCC1
13.7%

// provenance: ChEMBL document CHEMBL6134795
